Test system: Phl p 5b-reactive T cell clones (TCCs) from allergic patients
Experimental Protocol: Proliferative reaction of Phl p 5b-reactive T cell clones ([3H]-thymidine incorporation)
Assay type: cell-based, human
Measurement Conditions: T cell-reactive region A; final concentration 0.3 μM
Observed Property: Incorporation of [3H]-thymidine into TCC JR 13 (stimulation index class)

Molecule | Endpoint Value
r Phl p 5b: recombinant wild type Phl p 5b, 265 amino acids, SEQ ID NO 87 (protein) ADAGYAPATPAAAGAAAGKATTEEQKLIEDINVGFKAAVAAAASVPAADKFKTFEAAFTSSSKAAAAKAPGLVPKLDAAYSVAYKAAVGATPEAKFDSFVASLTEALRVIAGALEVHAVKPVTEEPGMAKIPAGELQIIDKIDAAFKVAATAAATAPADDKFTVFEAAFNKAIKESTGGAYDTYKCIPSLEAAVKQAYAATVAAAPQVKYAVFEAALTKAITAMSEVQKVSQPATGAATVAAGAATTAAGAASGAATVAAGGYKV | +++ (>10 (+++))
rPhl p 5b point mutant PM3 (A13C) (protein) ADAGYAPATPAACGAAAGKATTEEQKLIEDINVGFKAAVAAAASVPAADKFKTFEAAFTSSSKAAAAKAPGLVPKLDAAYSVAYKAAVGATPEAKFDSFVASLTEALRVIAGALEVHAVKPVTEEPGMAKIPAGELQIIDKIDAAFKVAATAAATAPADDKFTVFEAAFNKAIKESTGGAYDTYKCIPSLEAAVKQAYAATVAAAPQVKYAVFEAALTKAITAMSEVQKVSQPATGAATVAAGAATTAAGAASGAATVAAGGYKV | +++ (>10 (+++))
DM1: deletion mutant of rPhl p 5b (ΔK50-P132, D49→L), SEQ ID NO 91 (protein) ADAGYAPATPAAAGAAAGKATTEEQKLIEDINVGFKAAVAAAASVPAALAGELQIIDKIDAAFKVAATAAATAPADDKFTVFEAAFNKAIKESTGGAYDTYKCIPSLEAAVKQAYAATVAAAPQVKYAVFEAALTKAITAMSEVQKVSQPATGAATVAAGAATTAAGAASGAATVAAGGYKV | +++ (>10 (+++))
